Data origin: the Deep4Chem optical property database

# protocol_notes: solvent given as SMILES
# details: in CCO
Let's look at some molecules and their measured emission maximum.
experimental_readout: emission maximum (nm)

- query_smiles: "COC1=C/C(=C\\C=C2C=CN(Cc3ccc(Br)cc3)C=C2)C=CC1=O"
  experimental_readout: "emission maximum"
  reported: 638
- query_smiles: "CCOC(=O)c1cc(C(=O)OCC)c2ccc(O)cc2n1"
  experimental_readout: "emission maximum"
  reported: 474
- query_smiles: "C=Cc1ccc(-c2ccc(-c3nnc(-c4ccc(-c5nnc(-c6ccc(-c7ccc(C=C)cc7)s6)o5)cc4)o3)s2)cc1"
  experimental_readout: "emission maximum"
  reported: 400
- query_smiles: "Nc1cccc2c1C(=O)c1ccccc1-2"
  experimental_readout: "emission maximum"
  reported: 521
- query_smiles: "CN(C)c1cc(C#N)c(N(C)C)c(C#N)c1"
  experimental_readout: "emission maximum"
  reported: 528.26
- query_smiles: "COc1ccc(C(=O)OCc2ccc3c4cccc5cccc(c6cccc2c63)c54)cc1"
  experimental_readout: "emission maximum"
  reported: 447
- query_smiles: "CCCCCCCCCCCCCCCCN(CCCCCCCCCCCCCCCC)c1ccc(/C=C/c2cc[n+](Cc3cc(C[n+]4ccc(/C=C/c5ccc(N(CCCCCCCCCCCCCCCC)CCCCCCCCCCCCCCCC)cc5)cc4)cc(C[n+]4ccc(/C=C/c5ccc(N(CCCCCCCCCCCCCCCC)CCCCCCCCCCCCCCCC)cc5)cc4)c3)cc2)cc1"
  experimental_readout: "emission maximum"
  reported: 621
- query_smiles: "CCN(CC)c1ccc2cc(C#N)/c(=N\\C(=O)c3ccco3)oc2c1"
  experimental_readout: "emission maximum"
  reported: 470

----------
# protocol_notes: solvent given as SMILES
# details: in CC#N
emission maximum values for the compounds below.

- query_smiles: "Nc1cccc2ncccc12"
  emission maximum / nm: 480
- query_smiles: "CN(C)c1ccc(/C=C/c2cccnn2)cc1"
  emission maximum / nm: 509
- query_smiles: "CN(C)c1ccc(-c2ncnc3ccccc23)cc1"
  emission maximum / nm: 529
- query_smiles: "CCCCCCCCN1c2ccc(C#Cc3ccc(C(F)(F)F)cc3)cc2Sc2cc(C=O)ccc21"
  emission maximum / nm: 534
- query_smiles: "CN(C)c1ccc2nc(-c3ccc(C(=O)O)cc3)sc2c1"
  emission maximum / nm: 558
- query_smiles: "Cc1cc2nc3c(=O)[nH]c(=O)n(C)c3nc2cc1C"
  emission maximum / nm: 437
- query_smiles: "CCN(CC)c1ccc(-c2cc3c(s2)c(C(=O)OC)cc(=O)n3C)cc1"
  emission maximum / nm: 605
- query_smiles: "O=c1ccc2ccc(C#Cc3ccccc3)cc2o1"
  emission maximum / nm: 364
- query_smiles: "CN(C)c1ccc(-c2nc3cccnc3[nH]2)cc1"
  emission maximum / nm: 408
- query_smiles: "CN(C)c1ccc(-c2nc(-c3ccc(N(C)C)cc3)c3ccccc3n2)cc1"
  emission maximum / nm: 571
- query_smiles: "O=CC1=C(c2ccc(-c3cccs3)s2)CC1"
  emission maximum / nm: 493
- query_smiles: "COC1=[N+]2C(=C(c3ccccc3)c3ccc(OC)n3[B-]2(F)F)C=C1"
  emission maximum / nm: 628

----------
# protocol_notes: solvent given as SMILES
# details: in Cc1ccccc1
Consider the following compounds and their measured emission maximum readings.

- query_smiles: "CC1=CC(C)=[N+]2C1=C(c1ccc(-c3ccc(OS(=O)(=O)c4ccc([N+](=O)[O-])cc4[N+](=O)[O-])cc3)s1)c1c(C)cc(C)n1[B-]2(F)F"
  emission maximum / nm: 530
- query_smiles: "CC(C)[Si](C#Cc1c2ccc(C(C)(C)C)cc2c(C#C[Si](C(C)C)(C(C)C)C(C)C)c2ccc(C(C)(C)C)cc12)(C(C)C)C(C)C"
  emission maximum / nm: 461
- query_smiles: "O=[N+]([O-])c1ccc([N+]2=Cc3ccc4c5c(ccc4c3O[B-]2(c2ccccc2)c2ccccc2)C=[N+](c2ccc([N+](=O)[O-])cc2)[B-](c2ccccc2)(c2ccccc2)O5)cc1"
  emission maximum / nm: 643
- query_smiles: "Cc1c2ccncc2c(C)c2c1[nH]c1ccccc12"
  emission maximum / nm: 403
- query_smiles: "COc1cc(C2=c3c(c4ccc(C(C)(C)C)cc4c4cc(C(C)(C)C)ccc34)=[N+]3C2=Nc2c(-c4cc(OC)c(OC)c(OC)c4)c4c5ccc(C(C)(C)C)cc5c5cc(C(C)(C)C)ccc5c4n2[B-]3(F)F)cc(OC)c1OC"
  emission maximum / nm: 816
- query_smiles: "Cc1cccc(C2=CC3=C(c4c(C)cc(C)cc4C)c4cc(-c5cccc(C)c5)c(-c5cccc(C)c5)n4[B-](F)(F)[N+]3=C2c2cccc(C)c2)c1"
  emission maximum / nm: 628

----------
# protocol_notes: solvent given as SMILES
# details: in Cc1ccccc1

- query_smiles: "Cc1cc(N2c3ccccc3C(C)(C)c3ccccc32)ccc1-c1cc(-c2ccc(N3c4ccccc4C(C)(C)c4ccccc43)cc2C)ncn1"
  emission maximum [nm]: 477
- query_smiles: "O=Cc1c(O)c(-c2nc3ccccc3s2)cc2ccccc12"
  emission maximum [nm]: 509
- query_smiles: "N#Cc1c(-n2c3ccc(-c4ccccc4)cc3c3cc(-c4ccccc4)ccc32)c(-n2c3ccc(-c4ccccc4)cc3c3cc(-c4ccccc4)ccc32)c(C#N)c(-n2c3ccc(-c4ccccc4)cc3c3cc(-c4ccccc4)ccc32)c1-n1c2ccc(-c3ccccc3)cc2c2cc(-c3ccccc3)ccc21"
  emission maximum [nm]: 577
- query_smiles: "c1ccc(-c2nc(-c3ccc(-n4c5ccccc5c5ccc6c(c7ccccc7n6-c6ccccc6)c54)cc3)c3sc4ccccc4c3n2)cc1"
  emission maximum [nm]: 465.01
- query_smiles: "N#Cc1nc2c3ccc(N(c4ccccc4)c4ccccc4)cc3c3cc(N(c4ccccc4)c4ccccc4)ccc3c2nc1C#N"
  emission maximum [nm]: 566
- query_smiles: "CCOc1cc2c(cc1/C=C/C(=C(C#N)C#N)c1ccccc1)c1ccccc1n2CC"
  emission maximum [nm]: 522
- query_smiles: "CCc1c(C)[nH]c(C2=[N+]3C(=C(C)c4c(C)c(CC)c(C)n4[B-]3(F)F)c3ccccc32)c1C"
  emission maximum [nm]: 646
- query_smiles: "Cc1cccc2[n+]1[B-](F)(F)n1c(c3cccc4cccc1c43)=N2"
  emission maximum [nm]: 498
- query_smiles: "CCCCCCCCN1c2ccccc2Sc2cc(/C=C/c3ccc(N(c4ccc(/C=C/c5ccc6c(c5)Sc5ccccc5N6CCCCCCCC)cc4)c4ccc(/C=C/c5ccc(/C=C/c6ccc(N(c7ccc(/C=C/c8ccc(N(c9ccccc9)c9ccccc9)cc8)cc7)c7ccc(/C=C/c8ccc(N(c9ccccc9)c9ccccc9)cc8)cc7)cc6)c6nsnc56)cc4)cc3)ccc21"
  emission maximum [nm]: 620
- query_smiles: "CCCCCCc1ccc2c3c(ccc2c1)O[B-](F)(F)[N+](c1cc([N+]2=Cc4c(ccc5cc(CCCCCC)ccc45)O[B-]2(F)F)cc([N+]2=Cc4c(ccc5cc(CCCCCC)ccc45)O[B-]2(F)F)c1)=C3"
  emission maximum [nm]: 493
- query_smiles: "Cc1cc(C)n2c1C=C1c3ccccc3C(c3cccn3C)=[N+]1[B-]2(F)F"
  emission maximum [nm]: 613
- query_smiles: "Cc1ccc(C2=C3C=CC(c4ccccc4)=[N+]3[B-](F)(F)n3c(Cl)ccc32)cc1"
  emission maximum [nm]: 558
- query_smiles: "CCCCCCc1ccc(-n2c3[n+](c4c5ccccc5c5ccccc5c42)[B-](C)(C)c2ccccc2-3)cc1"
  emission maximum [nm]: 385

----------
# protocol_notes: solvent given as SMILES
# details: in CC#N
Collected emission maximum values appear next to each entry.

- compound: "Cc1c2ccncc2c(C)c2c1[nH]c1ccccc12"
  endpoint_unit: "nm"
  emission maximum: 420
- compound: "Cc1ccc(/C=C/c2ccccc2-[n+]2noc([O-])c2-c2ccccc2)cc1"
  endpoint_unit: "nm"
  emission maximum: 506
- compound: "CC(=O)O[B-]1(OC(C)=O)OC(/C=C/c2ccc(C)cc2)=CC(/C=C/c2ccc(C)cc2)=[O+]1"
  endpoint_unit: "nm"
  emission maximum: 493
- compound: "CCOc1ccc(/C=C/C=C/C=C/c2ccc([N+](=O)[O-])cc2)cc1"
  endpoint_unit: "nm"
  emission maximum: 740
- compound: "COc1ccc(C2=CC3=C(c4c(C)cc(C)cc4C)c4cc(-c5ccc(OC)cc5)c(-c5ccc(OC)cc5)n4[B-](F)(F)[N+]3=C2c2ccc(OC)cc2)cc1"
  endpoint_unit: "nm"
  emission maximum: 673
- compound: "C[P+]1(c2ccccc2)c2ccccc2-c2sc3ccccc3c21 (centres undefined)"
  endpoint_unit: "nm"
  emission maximum: 442
- compound: "c1ccc(N(c2ccccc2)c2ccc(-c3nc(-c4ccc(N(c5ccccc5)c5ccccc5)cc4)c4ccccc4n3)cc2)cc1"
  endpoint_unit: "nm"
  emission maximum: 565
- compound: "O=Cc1cc(C=O)c2ccc3c(N4CCCCC4)cc(N4CCCCC4)c4ccc1c2c43"
  endpoint_unit: "nm"
  emission maximum: 602
- compound: "CCC/N=C/c1cc2ccc(N(C)C)cc2cc1OC"
  endpoint_unit: "nm"
  emission maximum: 448
